# procedure_details: Clearance in rat
# Type: ADME
# condition_label: in vivo

| compound | clearance [mL/min/kg] |
| --- | --- |
| CC1CCCOc2nc(ccc2C(N)=O)-n2c(=O)[nH]c3nccc(c32)O1 (centres undefined) | 19.6 |
| CC1CC(C)Oc2ccnc3[nH]c(=O)n(c23)-c2cccc(n2)O1 (centres undefined) | 12 |
| CC1CCC(C)n2ccc(=O)c3ccc(nc32)-n2c(=O)[nH]c3nccc(c32)O1 (centres undefined) | 36 |
| CC1CCC(C)n2ccc(=O)c3cc(F)c(nc32)-n2c(=O)[nH]c3nccc(c32)O1 (centres undefined) | 41 |
